Recorded values, source patent US20110028509A1.

TARGET_ENTITY: CXCR3 (Homo sapiens, UniProt P49682)
Sequence (P49682 whole entry): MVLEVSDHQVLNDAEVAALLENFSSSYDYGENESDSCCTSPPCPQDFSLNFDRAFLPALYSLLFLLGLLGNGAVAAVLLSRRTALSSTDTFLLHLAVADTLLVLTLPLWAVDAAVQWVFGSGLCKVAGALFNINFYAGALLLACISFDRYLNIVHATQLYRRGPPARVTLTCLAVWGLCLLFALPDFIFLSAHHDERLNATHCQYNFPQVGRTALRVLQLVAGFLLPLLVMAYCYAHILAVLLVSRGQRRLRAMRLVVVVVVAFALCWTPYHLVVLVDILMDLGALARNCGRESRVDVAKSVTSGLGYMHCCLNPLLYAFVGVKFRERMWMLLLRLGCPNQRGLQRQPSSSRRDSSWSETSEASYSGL
PROCEDURE_SUMMARY: CXCR3 Ca2+ mobilization (FLIPR), stable hCXCR3-CHO cell line, I-TAC stimulated
Type: cell-based
Design: host or cells: CHO cells stably expressing hCXCR3
CONDITION_PARAMETERS: hCXCR3-CHO cells, I-TAC 100 nM stimulated Ca2+ response; read-out: Ca-ITAC
pIC50: −log10 of the molar value.
// values below are reported pIC50
MEASURED_PARAMETER: pIC50

* O=S(=O)(c1ccc(Cl)cc1)N(Cc1ccccn1)Cc1ccc(-c2nnn[nH]2)cc1F | 5.30
* O=C(N[C@H](Cc1ccccc1)C(=O)O)c1ccc(CN(Cc2ccccn2)S(=O)(=O)c2ccc(Cl)cc2)cc1 | 5.70
* CCOC(=O)c1ccc(CN(Cc2cccnc2)S(=O)(=O)c2ccc(C#N)cc2)cc1 | 5.72
* CCOc1ccc(S(=O)(=O)N(Cc2ccc(N3CCOCC3)cc2)Cc2ccccn2)cc1 | 5.05
* CCOc1ccc(S(=O)(=O)N(Cc2ccc(C(=O)N[C@H]3[C@@H]4CN(C(=O)OC(C)(C)C)C[C@@H]43)cc2)Cc2cccnc2)cc1 | 5.70
* CCOC(=O)C1(NC(=O)c2ccc(CN(Cc3ccccn3)S(=O)(=O)c3ccc(C#N)cc3)cc2)CC1 | 6.85
* N#Cc1ccc(S(=O)(=O)N(Cc2ccc(C(=O)NC3(c4ccc(Cl)cc4)CC3)cc2)Cc2ccccn2)cc1 | 6.15
